molecular target: T1, hCMV gH, gL, UL128, UL130 and UL131A co-expressed in HEK293T cells (human cytomegalovirus, UniProt P12824 24-743; P16832 31-278; P16837 1-171; P16772 1-214); assay: cell cross-competition, 20x excess; competitor 10F7-biotin
T1 construct: whole, on cells; also called gH + gL + UL128 + UL130 + UL131A; gH/gL/UL128-130 complex
recorded.endpoint: Inhibition of binding (%)
# unit: % | format: bare number

Solved cases below.
**Query** Suppose we examine the binder 15D8 (antibody, V domains shown, human IgG mAb; also called 15D8-biotin) VH: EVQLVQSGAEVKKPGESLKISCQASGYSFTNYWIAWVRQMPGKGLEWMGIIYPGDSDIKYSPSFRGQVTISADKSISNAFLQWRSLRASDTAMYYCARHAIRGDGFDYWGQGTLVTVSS VL: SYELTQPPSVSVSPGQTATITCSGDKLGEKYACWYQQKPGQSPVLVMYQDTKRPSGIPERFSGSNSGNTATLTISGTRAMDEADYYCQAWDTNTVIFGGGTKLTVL ; what Inhibition of binding (%) value has been reported?
**Result** 0

**Query** Given the binder 4N10 (antibody, V domains shown, human IgG mAb; also called 4N10-biotin) VH: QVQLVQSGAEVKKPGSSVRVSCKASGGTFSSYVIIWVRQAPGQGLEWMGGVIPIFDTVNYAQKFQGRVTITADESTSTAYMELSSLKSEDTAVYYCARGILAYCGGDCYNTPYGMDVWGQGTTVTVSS VL: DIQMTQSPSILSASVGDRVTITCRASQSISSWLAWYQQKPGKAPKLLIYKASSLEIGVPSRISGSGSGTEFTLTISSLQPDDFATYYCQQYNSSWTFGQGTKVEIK , what is its reported Inhibition of binding (%)?
**Result** 0

**Query** Consider the binder 8L13 (antibody, V domains shown, human IgG mAb) VH: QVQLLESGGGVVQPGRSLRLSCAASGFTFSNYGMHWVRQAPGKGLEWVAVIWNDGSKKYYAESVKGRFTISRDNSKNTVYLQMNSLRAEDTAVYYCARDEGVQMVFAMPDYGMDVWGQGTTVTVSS VL: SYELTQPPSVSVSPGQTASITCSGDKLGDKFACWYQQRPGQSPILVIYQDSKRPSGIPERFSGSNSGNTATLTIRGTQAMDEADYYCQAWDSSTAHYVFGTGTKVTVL and give its measured Inhibition of binding (%).
**Result** 100

Moving on to another binder below.
**Query** Reported Inhibition of binding (%) for 4I22 (antibody, V domains shown, human IgG mAb; also called 4I22-biotin) VH: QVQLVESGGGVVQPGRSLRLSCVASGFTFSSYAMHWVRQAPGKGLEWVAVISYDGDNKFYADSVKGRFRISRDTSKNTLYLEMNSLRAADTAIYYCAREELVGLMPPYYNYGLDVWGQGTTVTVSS VL: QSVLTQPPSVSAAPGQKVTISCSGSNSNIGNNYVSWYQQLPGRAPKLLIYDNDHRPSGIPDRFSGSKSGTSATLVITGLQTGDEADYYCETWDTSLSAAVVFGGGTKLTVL : what is it?
**Result** 100

These data points were gathered from patent US20100092481A1.
